# MEASURED_TARGET: binding of His-XIAP(BIR2)-avi fusion protein to GST-RIPK2 fusion protein (RIPK2/XIAP) (Homo sapiens)
# Construct: made in house; host or cells: baculovirus infected Sf9 cells
# TEST_NAME: RIPK2-XIAP binding competition PPI assay (TR-FRET)
# MEASUREMENT_CONDITIONS: RIPK2/XIAP binding competition PPI assay; read-out: PPI IC50 bin
pIC50: −log10 of the molar value.
Listed below: pIC50 values for each entry.

Documented pIC50 of CC(C)(C)S(=O)(=O)c1cn2c(-c3cc(F)c(N)nc3F)cnc2cc1OCC(CO)C(F)(F)F (stereo not drawn) : 7.70 to 8.60

The compound listed as `Cn1cc(-c2cc3ncc(-c4cc(F)c(N)nc4F)n3cc2S(=O)(=O)C(C)(C)C)cn1` shows pIC50 equal to 7.70 to 8.60

Just so you know, measured pIC50 for `COc1c(F)cc(-c2cnn3cc(OCCO)c(S(=O)(=O)C(C)(C)C)cc23)cc1NS(=O)(=O)c1cnn(C)c1` came out at > 9.00

Per the record, `COc1cc2ncc(-c3cc(F)c(N)nc3F)n2cc1S(=O)(=O)C1(C)CCN(C2COC2)CC1` has pIC50 of < 7.70

// pIC50 lookup, compound = `COc1cc2ncc(-c3cc(F)c(OC)c(NS(=O)(=O)c4cnn(C)c4)c3)n2cc1S(=O)(=O)C(C)C` , result: > 9.00

# compound `CC(C)(C)S(=O)(=O)c1cn2c(-c3cnc4c(c3)C3(CC3)CN4)cnc2cc1OCCO` ; its pIC50 = < 7.70

----------
# IC50 values compiled below
# MEASURED_TARGET: binding of His-XIAP(BIR2)-avi fusion protein to GST-RIPK2 fusion protein (RIPK2/XIAP) (Homo sapiens, UniProt O43353)
# Construct: made in house; host or cells: baculovirus infected Sf9 cells
# Sequence (O43353 1-310 limits assumed): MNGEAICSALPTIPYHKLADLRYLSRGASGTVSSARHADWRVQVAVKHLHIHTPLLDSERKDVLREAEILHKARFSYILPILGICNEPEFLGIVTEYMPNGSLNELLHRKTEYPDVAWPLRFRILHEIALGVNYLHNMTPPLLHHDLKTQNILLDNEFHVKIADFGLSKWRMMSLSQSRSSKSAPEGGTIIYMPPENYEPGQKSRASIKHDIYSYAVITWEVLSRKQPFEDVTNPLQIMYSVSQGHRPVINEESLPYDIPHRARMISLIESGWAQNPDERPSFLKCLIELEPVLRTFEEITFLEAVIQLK
# TEST_NAME: RIPK2-XIAP binding competition PPI assay (TR-FRET)
# MEASUREMENT_CONDITIONS: RIPK2/XIAP binding competition PPI assay; read-out: PPI IC50 bin
# Excerpt: The ability of selected compounds of Formula (I) to inhibit the binding of an His-XIAP(BIR2)-avi fusion protein to a GST-RIPK2 fusion protein was quantified employing the TR-FRET-based competition assay as described in the following paragraphs. […]

Some molecules with recorded IC50:
COc1cc2ncc(-c3cc(F)c(OC)c(NS(=O)(=O)C4(CO)CC4)c3)n2cc1S(=O)(=O)C(C)(C)C = < 1 nM
CC(C)(C)S(=O)(=O)c1cc2c(-c3cc(F)c(N)nc3F)cnn2cc1OCC(O)CO (stereo not shown) = 1 to 2.5 nM
COc1cc2ncc(-c3cc(F)c(OC)c4[nH]c(CO)nc34)n2cc1S(=O)(=O)C(C)(C)C = < 1 nM

Consider now this further molecule.
The molecule identified as `CN(C)C(=O)c1cc2ncc(-c3cc(F)c(N)nc3F)n2cc1S(=O)(=O)C(C)(C)C` registered its IC50 at > 20 nM

----------
# MEASURED_TARGET: GST-RIPK2 fusion protein (human RIPK2, amino acids 1-310) (Homo sapiens, UniProt O43353)
# Construct: made in house; host or cells: baculovirus infected Sf9 cells
# TEST_NAME: RIPK2 binding competition assay (TR-FRET, Tracer 199 displacement)
# MEASUREMENT_CONDITIONS: 10 nM Tracer 199, 1 nM GST-RIPK2, read-out: RIPK2 IC50
# Excerpt: The ability of selected compounds of Formula (I) to inhibit the binding of an Alexa647-labelled ATP-competitive kinase inhibitor to a GST-RIPK2 fusion protein was quantified employing the TR-FRET-based RIPK2 binding competition assay as described in the following paragraphs. […] Table A1 below lists IC50 values of selected compounds of Formula (I) measured in the RIPK2 binding competition assay.
RESULT_TYPE: IC50

Below are worked cases with known answers.
COc1cc2ncc(-c3cccc(NS(=O)(=O)C4CCN(C(=O)OC(C)(C)C)C4)c3)n2cc1S(=O)(=O)C(C)(C)C (stereo not shown) = 2.5 to 20 nM
CC1(COc2cc3ncc(-c4cc(F)c(N)nc4F)n3cc2S(=O)(=O)C(C)(C)C)COC1 = 1 to 2.5 nM
CC(C)(C)S(=O)(=O)c1cn2c(-c3cnc4[nH]cc(Cl)c4c3)cnc2cc1OCCO = 1 to 2.5 nM
CCCS(=O)(=O)Nc1cc(-c2cnc3cc(OC)c(S(=O)(=O)C(C)(C)C)cn23)cc(-n2cccn2)c1 = 1 to 2.5 nM

Measured IC50 of `CC(C)(C)S(=O)(=O)c1cn2c(-c3cc(Cl)c(N)nc3F)cnc2cc1OCC(=O)O` : > 20 nM

// `COc1c(F)cc(-c2cnc3cc(OC[C@@H](C)CO)c(S(=O)(=O)C(C)(C)C)cn23)cc1NS(C)(=O)=O` : IC50 value = < 1 nM

Entry `COCCn1cc(-c2cc3ncc(-c4cc(F)c(N)nc4F)n3cc2S(=O)(=O)C(C)(C)C)cn1` ; IC50 = 2.5 to 20 nM

----------
Recorded Emax values for a group of compounds are listed next.
# MEASURED_TARGET: binding of His-XIAP(BIR2)-avi fusion protein to GST-RIPK2 fusion protein (RIPK2/XIAP) (Homo sapiens, UniProt O43353)
# Construct: made in house; host or cells: baculovirus infected Sf9 cells
# TEST_NAME: RIPK2-XIAP binding competition PPI assay (TR-FRET)
# MEASUREMENT_CONDITIONS: RIPK2/XIAP binding competition PPI assay, Amax; read-out: PPI Amax bin

Some entries whose results are on file:
COc1cc2ncc(-c3cc(F)c(OC)c(NS(=O)(=O)c4cnn(CCO)c4)c3)n2cc1C(F)(F)F = > 80%
COc1cc2ncc(-c3cc(F)c(OC)c(NS(=O)(=O)c4cnn(C)c4)c3)n2cc1S(C)(=O)=O = > 80%
COc1cc2ncc(-c3cc(F)c(N)nc3F)n2cc1S(=O)(=O)C(C)(C)CO = > 80%
CC(C)(C)S(=O)(=O)c1cn2c(-c3cc(F)c(N)nc3F)cnc2cc1-c1cn[nH]c1 = > 80%
COc1cc2ncc(-c3cccc(NS(=O)(=O)CC4CC4)c3)n2cc1S(=O)(=O)C(C)(C)C = > 80%
C[C@@H](O)COc1cc2ncc(-c3cc4cc[nH]c4nc3F)n2cc1S(=O)(=O)C(C)(C)C = > 80%

Record `COc1cc2ncc(-c3cc(F)c(OC)c(NS(=O)(=O)c4cnc(C)s4)c3)n2cc1S(=O)(=O)C(C)(C)C` . Reported Emax: 55 to 80%

Just so you know, measured Emax for `CC(C)(C)S(=O)(=O)c1cn2c(-c3cc(F)c(N)nc3F)cnc2cc1CO` came out at > 80%

----------
# MEASURED_TARGET: binding of His-XIAP(BIR2)-avi fusion protein to GST-RIPK2 fusion protein (RIPK2/XIAP) (Homo sapiens)
# Construct: made in house; host or cells: baculovirus infected Sf9 cells
# TEST_NAME: RIPK2-XIAP binding competition PPI assay (TR-FRET)
# MEASUREMENT_CONDITIONS: RIPK2/XIAP binding competition PPI assay, Amax; read-out: PPI Amax bin
RESULT_TYPE: Emax

Guide cases for Emax, answers given:
COc1c(F)cc(-c2cnc3cc(Cl)c(S(=O)(=O)C(C)(C)C)cn23)cc1NS(=O)(=O)c1cnn(C)c1 [Example 263] = > 80%
Nc1cc(-c2cnc3ccc(C(F)(F)F)cn23)cc(F)n1 [Example 4] = < 30%
COc1cc2ncc(-c3ccc4ncoc4c3)n2cc1S(=O)(=O)C(C)(C)C [Example 110] = < 30%
COc1cc2ncc(-c3cc(F)c(OC)c(NS(=O)(=O)CC(F)(F)F)c3)n2cc1S(=O)(=O)C(C)(C)C [Example 143] = 55 to 80%
COc1cc2ncc(-c3cc(F)c(OC)c(NS(=O)(=O)c4cnn(C)c4)c3)n2cc1C(F)(F)F [Example 136] = > 80%
CC(C)(O)COc1cc2ncc(-c3cc(Cl)c(N)nc3F)n2cc1S(=O)(=O)C(C)(C)C [Example 240] = > 80%

Consider the record given below.
Recorded Emax (molecule CCC(C)(C)S(=O)(=O)c1cn2c(-c3cc(F)c(N)nc3F)cnc2cc1OC [Example 69] ): > 80%

----------
# MEASURED_TARGET: binding of His-XIAP(BIR2)-avi fusion protein to GST-RIPK2 fusion protein (RIPK2/XIAP) (Homo sapiens, UniProt O43353)
# Construct: made in house; host or cells: baculovirus infected Sf9 cells
# TEST_NAME: RIPK2-XIAP binding competition PPI assay (TR-FRET)
# MEASUREMENT_CONDITIONS: RIPK2/XIAP binding competition PPI assay, Amax; read-out: PPI Amax bin
Let's look at some compounds and their measured Emax.

Below, each entry is followed by its recorded Emax result.
CC(C)(C)S(=O)(=O)c1cn2c(-c3cc(Cl)c(N)nc3F)cnc2cc1NCCO [Example 256] = > 80%
C[C@@H](CO)COc1cn2ncc(-c3cc(F)c(N)nc3F)c2cc1S(=O)(=O)C(C)(C)C [Example 194] = > 80%

Then there is this compound:
For COc1cc2ncc(-c3ccc4oc(N)nc4c3)n2cc1S(=O)(=O)C(C)(C)C [Example 104] the compound record lists Emax as 30 to 55%
